- Test: Pharmacokinetics in cynomolgus monkeys
- Assay type: in vivo, monkey
- Assay Context: monkey, in vivo; cynomolgus monkeys, IV 1 mg/kg; read-out: T1/2 (converted)
Measurement Type: half-life
Entry format: amount then unit.

Note down half-life recorded for C[C@H](Nc1ncnc2[nH]cnc12)c1cc2cccc(Cl)c2c(=O)n1-c1ccccc1 [Compound 292] 5 h

---

- System: B cell
- Test: B cell proliferation
- Assay type: cell-based
pEC50: −log10 of the molar value.
Field: pEC50. Provide a value for each of the compounds that follow.

Note down pEC50 recorded for Cc1cccc2cc(Cn3nc(-c4cn[nH]c4)c4c(N)ncnc43)n(-c3ccccc3)c(=O)c12 > 7.00

Note down pEC50 recorded for Cc1cccc2cc(C(C)Nc3ncnc4[nH]cnc34)n(C3CCOCC3)c(=O)c12 (stereo not shown) > 7.00

Note down pEC50 recorded for Cc1cccnc1-n1c(Cn2nc(-c3ccc(F)c(O)c3)c3c(N)ncnc32)cc2cccc(C)c2c1=O > 7.00

Note down pEC50 recorded for Cc1ccccc1-n1c(Cn2nc(C#C[C@@H](C)O)c3c(N)ncnc32)cc2cccc(C)c2c1=O > 7.00
